Measured melting point by item
measured property: melting point (°C)

chemical smiles | measurement unit | numeric readout
C#Cc1cc(C)nc(C(=O)Nc2ccn(C)n2)c1 | °C | 226.5
Cc1cc(C#N)cc(C(=O)Nc2ccc(F)c(F)c2)n1 | °C | 170
Cc1cc(C#N)c(C)c(C(=O)Nc2ccc(C#N)cn2)n1 | °C | 216
Cc1cc(C#N)cc(C(=O)Nc2ccc(F)c(C)n2)n1 | °C | 222
Cc1cc(Cl)cc(C(=O)Nc2ccnc(Cl)c2)n1 | °C | 221

* * *

Just a reminder that ties go to 0 (no): only melting point strictly below 200 °C counts as 1 (yes).

chemical smiles | class
Cc1cc(C#N)cc(C(=O)Nc2ccc(F)cc2)n1 | 1 (yes)
Cc1cc(C#N)cc(C(=O)Nc2cccc(Cl)n2)n1 | 0 (no)
Cc1ccc(NC(=O)c2cc(Cl)cc(C)n2)nc1 | 1 (yes)
Cc1ccc(NC(=O)c2nc(C)cc(C#N)c2C)nc1 | 0 (no)
Cc1cc(Cl)cc(C(=O)Nc2cccc(Cl)c2)n1 | 1 (yes)
Cc1cc(Br)cc(C(=O)Nc2ccc(F)cn2)n1 | 1 (yes)
Cc1cc(C#N)c(C)c(C(=O)Nc2ccc(Cl)cn2)n1 | 0 (no)
Cc1cccc(NC(=O)c2cc(C#N)cc(C)n2)c1 | 1 (yes)
Cc1cc(C#N)c(C)c(C(=O)Nc2ccn(C)n2)n1 | 1 (yes)
Cc1cc(C#N)cc(C(=O)Nc2cccc(F)c2)n1 | 1 (yes)
Cc1cc(C#N)cc(C(=O)Nc2ccc(C#N)cn2)n1 | 0 (no)
CCc1cc(C#N)cc(C(=O)Nc2ccc(F)cn2)n1 | 1 (yes)
CC(C)c1cc(C#N)cc(C(=O)Nc2ccn(C)n2)n1 | 1 (yes)
Cc1cccc(NC(=O)c2cc(C#N)cc(C)n2)n1 | 0 (no)
COc1cccc(NC(=O)c2cc(C#N)cc(C)n2)c1 | 1 (yes)
N#Cc1cc(CO)nc(C(=O)Nc2cccc(Cl)c2)c1 | 1 (yes)
Cc1cccc(NC(=O)c2cc(Cl)cc(C)n2)n1 | 1 (yes)
Cc1cc(C#N)cc(C(=O)Nc2nc(C)cs2)n1 | 0 (no)
Cc1cc(C#N)cc(C(=O)Nc2ccnc(Cl)c2)n1 | 0 (no)
Cn1ccc(NC(=O)c2cc(C#N)cc(C(F)(F)F)n2)n1 | 1 (yes)
Cc1cc(C#N)cc(C(=O)Nc2cccc(Cl)c2)n1 | 1 (yes)
N#Cc1cc(C(=O)Nc2ccc(F)cn2)nc(C(F)(F)F)c1 | 1 (yes)
Cc1cc(Cl)cc(C(=O)Nc2ccc(Cl)cn2)n1 | 1 (yes)
N#Cc1cc(C(=O)Nc2ccc(Cl)cn2)nc(C(F)(F)F)c1 | 0 (no)
CCc1cc(C#N)cc(C(=O)Nc2ccn(C)n2)n1 | 1 (yes)
Cc1cc(Cl)cc(C(=O)Nc2ccc(F)cn2)n1 | 1 (yes)
Cc1cc(C#N)cc(C(=O)Nc2ccc(F)c(C)c2)n1 | 1 (yes)
Cc1cc(Br)cc(C(=O)Nc2ccc(F)c(C)n2)n1 | 1 (yes)
Cc1cccc(NC(=O)c2cc(Cl)cc(C)n2)c1 | 1 (yes)
Cc1cc(Cl)cc(C(=O)Nc2cccc(F)c2)n1 | 1 (yes)
Cc1cc(C#N)cc(C(=O)Nc2ccnc(F)c2)n1 | 0 (no)
Cc1cc(Cl)cc(C(=O)Nc2cccc(Cl)n2)n1 | 1 (yes)
Cc1cc(Cl)cc(C(=O)Nc2nc(C)cs2)n1 | 1 (yes)
Cc1cc(NC(=O)c2cc(Cl)cc(C)n2)ccn1 | 1 (yes)
CCc1cc(Br)cc(C(=O)Nc2ccc(F)cn2)n1 | 1 (yes)
